Data provenance: patent EP3964526A1

Could you please report measured kon for the items listed next?
Target: T1, recombinant human VEGF165 (PeproTech EC Ltd.) (human, UniProt P15692-4 27-191)
T1 construct: Amine-coupled to a CM4 sensor chip; also called hVEGF165
T1 sequence (P15692 other isoform, or with tags, fused parts or gaps limits assumed): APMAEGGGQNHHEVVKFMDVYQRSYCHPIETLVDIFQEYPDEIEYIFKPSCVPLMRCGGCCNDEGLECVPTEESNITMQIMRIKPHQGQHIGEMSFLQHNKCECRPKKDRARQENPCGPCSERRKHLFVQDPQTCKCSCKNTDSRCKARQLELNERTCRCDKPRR
Assay: SPR BIAcore T100, hVEGF165 amine-coupled on CM4 chip, scFv as analyte
Answer format: numeric, M⁻¹ s⁻¹ implied, no suffix.

Problem: Give its kon value. Item: 578-max (scFv) EIVMTQSPSTLSASVGDRVIITCQASEIIHSWLAWYQQKPGKAPKLLIYLASTLASGVPSRFSGSGSGTQFTLTISSLQPDDFATYYCQNVYLASTNGANFGQGTKLTVLGGGGGSGGGGSGGGGSGGGGSEVQLVESGGGLVQPGGSLRLSCTASGFSLTDYYYMTWVRQAPGKGLEWVGFIDPDDDPYYATWAKGRFTISRDTSKNTVYLQMNSLRAEDTAVYYCAGGDHNSGWGLDIWGQGTLVTVSS
Solution: 700000

Problem: Give its kon value. Item: 610-max (scFv) EIVMTQSPSTLSASVGDRVIITCQASQSISSWLSWYQQKPGKAPKLLIYQASTLASGVPSRFSGSGSGTEFTLTISSLQPDDFATYYCQNNYGFRSYGGAFGQGTKLTVLGGGGGSGGGGSGGGGSGGGGSEVQLVESGGGLVQPGGSLRLSCTASGIDFSGAYYMGWVRQAPGKGLEWVGYIDYDGDRYYASWAKGRFTISKDTSKNTVYLQMNSLRAEDTAVYYCARSDYSSGWGTDIWGQGTLVTVSS
Solution: 509000

Problem: Give its kon value. Item: 509-max (scFv) EIVMTQSPSTLSASVGDRVIITCQASQNIRIWLSWYQQKPGKAPKLLIYKASTLESGVPSRFSGSGSGTEFTLTISSLQPDDFATYYCQNNAHYSTNGGTFGQGTKLTVLGGGGGSGGGGSGGGGSGGGGSEVQLVESGGGLVQPGGSLRLSCTASGFSLSSYYMCWVRQAPGKGLEWVGCLDYVGDTDYASWAKGRFTISKDASKNTVYLQMNSLRAEDTAVYYCARTDDSRGWGLNIWGQGTLVTVSS
Solution: 2.26e+06

Problem: Give its kon value. Item: 511-max (scFv) EIVMTQSPSTLSASVGDRVIITCQASQSINIWLSWYQQKPGKAPKLLIYRASTLASGVPSRFSGSGSGTEFTLTISSLQPDDFATYYCQANYAYSAGYGAAFGQGTKLTVLGGGGGSGGGGSGGGGSGGGGSEVQLVESGGGLVQPGGSLRLSCTVSGFSLNTYYMNWVRQAPGKGLEWVGIIAPDDTTYYASWAKSRSTISRDTSKNTVYLQMNSLRAEDTAVYYCARSGDTTAWGADIWGQGTLVTVSS
Solution: 659000

Problem: Give its kon value. Item: 610-min (scFv) EIVMTQSPSTLSASVGDRVIITCQASQSISSWLSWYQQKPGKAPKLLIYQASTLASGVPSRFSGSGSGAEFTLTISSLQPDDFATYYCQNNYGFRSYGGAFGQGTKLTVLGGGGGSGGGGSGGGGSGGGGSEVQLVESGGGLVQPGGSLRLSCAASGIDFSGAYYMGWVRQAPGKGLEWVSYIDYDGDRYYASWAKGRFTISRDNSKNTLYLQMNSLRAEDTAVYYCAKSDYSSGWGTDIWGQGTLVTVSS
Solution: 251000
